# testTarget: T1, HER2ECDHis (human, UniProt P04626 23-653, biotinylated in the cross-block ELISA (sites not given))
# T1 construct: range 1-653; expressed in HEK-293F; also called soluble HER2; biotinylated HER2ECDHis
# protocolDetails: ELISA; competitor 084
Property: % binding vs no competitor; scope: individual binders

| binder | unitName | % binding vs no competitor |
| --- | --- | --- |
| HuMab 169 (antibody, V domains shown, also called TH1014-169; PC1014-169) VH: QVQLVQSGAEVKKPGASVKVSCKASGYTFTNYGISWVRQAPGQGLEWMGWLSAYSGNTIYAQKLQGRVTMTTDTSTTTAYMELRSLRSDDTAVYYCARDRIVVRPDYFDYWGQGTLVTVSS VL: EIVLTQSPATLSLSPGERATLSCRASQSVSSYLAWYQQKPGQAPRLLIYDASNRATGIPARFSGSGSGTDFTLTISSLEPEDFAVYYCQQRSNWPRTFGQGTKVEIK | % | 73 |
| HuMab 091 (antibody, V domains shown, also called TH1014-091; PC1014-091) VH: QVQLQQWGAGLLKPSETLSLTCAVSGGSFSGYYWTWIRQPPGKGLEWIGEIYHSGDTNYNPSLKSRVTISVDTSKNQFSLKLYSVTAADTAVYYCARLYFGSGIYYLDYWGQGTLVTVSS VL: DIQMTQSPSSLSASVGDRVTITCRASQGISSWLVWYQQKPEKAPKSLIYAASSLQSGVPSRFSGSGSGTDFTLTISSLQPEDFATYYCQQYNSFPPTFGQGTKVEIK | % | 100 |
| HuMab 050 (antibody, V domains shown, also called TH1014-050; PC1014-050) VH: EVQLLESGGGLVQPGGSLRLSCAASGFTFSSYAMNWVRQAPGKGLEWVSAISGRGGTTYYADSVKGRFTISRDNSKNTLYLQMSSLRAEDTAVYYCAKARANWDYFDYWGQGTLVTVSS VL: DIQMTQSPSSVSASVGDRVTITCRASQGISSWLAWYQHKPGKAPKLLIYAASILQSGVPSRFSGSGSGTDFTLTISSLQPEDFATYYCQQANSFPITFGQGTRLEIK | % | 74 |
| HuMab 153 (antibody, V domains shown) VH: QVQLVESGGGVVQPGRSLRLSCAASGFTFSDYVIHWVRQAPGKGLEWVTVISYDGSNKYYADSVKGRFTISRDNSKNTLYLQMNSLSAEDTAMYYCARGGITGTTGVFDYWGQGTLVTVSS VL: DIQMTQSPSSLSASVGDRVTITCRASQGISSWLAWYQQKPEKAPKSLIYDASSLQSGVPSRFSGSGYGTDFSLTISSLQPEDFAIYYCQQYKSYPITFGQGTRLEIK | % | 107 |
| HuMab 084 (antibody, V domains shown, also called TH1014-084; PC1014-084) VH: QVQLVQSGAEVKKPGSSVKVSCKASGGTFRTYAINWVRQAPGQGLEWMGRINTVLGIVNHAQKFQGRVTITADKSTNTAYMELNSLRSEDTAVYYCAREKGVDYYYGIEVWGQGTTVTVSS VL: DIQMTQSPSSVSASVGDRVTITCRASQGISSWLAWYQHKPGKAPKLLIYVASTLQSGVPSRFSGSGSGTDFTLTISSLQPEDFATYYCQQANSFPLTFGGGTKVEIK | % | 20 |
| HuMab 098 (antibody, V domains shown, also called TH1014-098; PC1014-098) VH: EVQLLESGGGLVQPGGSLRLSCAASGFTFSNYGMSWVRQAPGKGLEWVSAISGSAYSTYYADSVKGRFTISRDNSKNTLWLQMNSLRAEDTAVYYCAKAHYHGSGSYYTLFDYWGQGTLVTVSS VL: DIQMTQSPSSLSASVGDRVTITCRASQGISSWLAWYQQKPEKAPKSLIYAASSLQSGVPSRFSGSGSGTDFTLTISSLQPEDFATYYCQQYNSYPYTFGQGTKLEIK | % | 103 |
| HuMab 025 (antibody, V domains shown, also called TH1014-025; PC1014-025) VH: QVQLQQWGAGLLKPSETLSLTCAVYGGSFSDYYWNWIRQPPGKGLEWIGEIHHSGSTNYNPSLKSRVTISVDTSKNQFSLKLSSVTAADTAVYYCARGYYDSGVYYFDYWAQGTLVTVSS VL: DIQMTQSPSSLSASVGDRVTITCRASQGISRWLAWYQQKPEKAPKSLIYAASSLRSGVPSRFSGSGSGTDFTLTISSLQPEDFATYYCQQYNSYPITFGQGTRLEIK | % | 104 |
| HuMab 129 (antibody, V domains shown) VH: QVQLVESGGGVVQPGRSLRLSCAASGFTFSTFAIHWVRQAPGKGLEWVAVISYDGGHKFYADSVKGRFTISRDNSKNTLYLQMNSLRAEDTAMYYCARGLGVWGAFDYWGQGTLVTVSS VL: EIVLTQSPATLSLSPGERATLSCRASQSVSSYLAWYQQKPGQAPRLLIYDASNRATGIPARFSGSGSGTDFTLTISSLEPEDFAVYYCQQRSNWWTFGQGTKVEIK | % | 92 |
